TARGET: STING WT: His-TVMV-S-hSTING(155-341)-H232R (Homo sapiens, UniProt Q86WV6, H232R)
Construct: STING WT: His-TVMV-S-hSTING(155-341)-H232R
Sequence (Q86WV6 with tags, fused parts or gaps H232R): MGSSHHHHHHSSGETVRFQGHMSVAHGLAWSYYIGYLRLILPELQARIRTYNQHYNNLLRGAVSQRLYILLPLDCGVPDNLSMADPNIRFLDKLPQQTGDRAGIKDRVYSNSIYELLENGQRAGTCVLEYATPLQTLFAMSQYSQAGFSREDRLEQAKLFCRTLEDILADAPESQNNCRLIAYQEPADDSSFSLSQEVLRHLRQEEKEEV
ASSAY COMMENT: STING HTRF binding assay (time resolved FRET competition), STING WT
PARTICULARS: 20 nM His-tagged STING WT cytoplasmic domain, 200 nM fluorescein-labeled cGAMP analog probe, one hour; read-out: HTRF Binding Assays IC50 (μM) WT
ASSAY READOUT: IC50 (µM)

a. Nc1ncnc2c1ncn2[C@@H]1C[C@@H]2COP(=O)(S)O[C@@H]3[C@H](F)[C@@H](COP(=O)(S)OC[C@H]21)O[C@H]3n1cnc2c(=O)n3cc[nH]c3nc21 (single isomer, unassigned) [Example 6-1]
b. Nc1ncnc2c1ncn2[C@@H]1O[C@@H]2COP(=O)(S)OC[C@@H]3[C@@H](COP(=O)(S)O[C@H]2[C@H]1F)C[C@H]3n1cnc2c(O)n3ccnc3nc21 (single isomer, unassigned) [Example 1-4]
c. Nc1ncnc2c1ncn2[C@@H]1C[C@@H]2COP(=O)(S)O[C@@H]3[C@H](F)[C@@H](COP(=O)(S)OC[C@H]21)O[C@H]3n1cnc2c(=O)n3cc[nH]c3nc21 (single isomer, unassigned) [Example 6-4]
Input: Parameters: sort_by = IC50; order = desc; input = items above. Dear reader, please state the labels in the requested order.
Output: c, a, b
(c: 19.4 µM, a: 6.31 µM, b: 0.01 µM)
